The reader will find reported viability, T/C values listed item by item below.
Tested on: 958667-338-R-J2-PDC tumor spheroids viability
testProtocol: Anticancer human tumor 958667-338-R-J2-PDC patient-derived colon adenocarcinoma cell line growth inhibition [PI3K]
assayContext: second compound 0.0316 µM; first compound 0.01 µM; stronger effect = lower value; spheroids with HUVEC and MSC
The reply should contain only the number, in %.

molecule	measuredParameter	endpointResult
Cn1ncnc1[C@H]1c2n[nH]c(=O)c3cc(F)cc(c23)N[C@@H]1c1ccc(F)cc1 + CC(Nc1ccc2c(c1)OCCn1cc(N3C(=O)OCC3C(F)F)nc1-2)C(N)=O	viability, T/C	89.3
Cn1ncnc1[C@H]1c2n[nH]c(=O)c3cc(F)cc(c23)N[C@@H]1c1ccc(F)cc1 + CC(Nc1ncnc2nc[nH]c12)c1cc2cccc(Cl)c2c(=O)n1-c1ccccc1	viability, T/C	110
Cn1ncnc1[C@H]1c2n[nH]c(=O)c3cc(F)cc(c23)N[C@@H]1c1ccc(F)cc1 + COc1c(OCCCN2CCOCC2)ccc2c3n(c(=NC(=O)c4cnc(N)nc4)nc12)CCN3	viability, T/C	79.2
CC(=O)c1c(C)c2cnc(Nc3ccc(N4CCNCC4)cn3)nc2n(C2CCCC2)c1=O + COc1c(OCCCN2CCOCC2)ccc2c3n(c(=NC(=O)c4cnc(N)nc4)nc12)CCN3	viability, T/C	56.7

# lookup: CCN1CCN(Cc2ccc(Nc3ncc(F)c(-c4cc(F)c5nc(C)n(C(C)C)c5c4)n3)nc2)CC1 + Cc1nc(NC(=O)N2CCCC2C(N)=O)sc1-c1ccnc(C(C)(C)C(F)(F)F)c1 on 958667-338-R-J2-PDC tumor spheroids viability, viability, T/C = 108

# lookup: CC(C)n1nc(-c2ccc3oc(N)nc3c2)c2c(N)ncnc21 + CC(Nc1ncnc2nc[nH]c12)c1cc2cccc(Cl)c2c(=O)n1-c1ccccc1 on 958667-338-R-J2-PDC tumor spheroids viability, viability, T/C = 112

# lookup: CCN1CCN(Cc2ccc(Nc3ncc(F)c(-c4cc(F)c5nc(C)n(C(C)C)c5c4)n3)nc2)CC1 + CC(Nc1ncnc2nc[nH]c12)c1cc2cccc(Cl)c2c(=O)n1-c1ccccc1 on 958667-338-R-J2-PDC tumor spheroids viability, viability, T/C = 98.2

# lookup: CC(=O)c1c(C)c2cnc(Nc3ccc(N4CCNCC4)cn3)nc2n(C2CCCC2)c1=O + Cc1nc(NC(=O)N2CCCC2C(N)=O)sc1-c1ccnc(C(C)(C)C(F)(F)F)c1 on 958667-338-R-J2-PDC tumor spheroids viability, viability, T/C = 94.3

# lookup: Cn1ncnc1[C@H]1c2n[nH]c(=O)c3cc(F)cc(c23)N[C@@H]1c1ccc(F)cc1 + Cc1nc(NC(=O)N2CCCC2C(N)=O)sc1-c1ccnc(C(C)(C)C(F)(F)F)c1 on 958667-338-R-J2-PDC tumor spheroids viability, viability, T/C = 106

----------
Test system: 958667-338-R-J2-PDC tumor spheroids viability
testProtocol: Anticancer human tumor 958667-338-R-J2-PDC cell line growth inhibition [PI3K];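 further: spheroids exposed to compounds for seven days before readout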
assayContext: curve of first compound; second compound 0.316 µM; spheroids with HUVEC and MSC
The reader will find reported IC50 values listed item by item below.
The reply should contain only the number, in µM.

Looking up Cn1ncc(Cl)c1-c1cc(C(=O)NC(CN)Cc2cccc(F)c2)sc1Cl (stereo unspecified) + CC(Nc1ccc2c(c1)OCCn1cc(N3C(=O)OCC3C(F)F)nc1-2)C(N)=O , I found its IC50 recorded as 0.944

Looking up CCCS(=O)(=O)Nc1ccc(F)c(C(=O)c2c[nH]c3ncc(-c4ccc(Cl)cc4)cc23)c1F + CC(Nc1ncnc2nc[nH]c12)c1cc2cccc(Cl)c2c(=O)n1-c1ccccc1 , I found its IC50 recorded as 6.36

Looking up CC1(C)CCC(CN2CCN(c3ccc(C(=O)NS(=O)(=O)c4ccc(NCC5CCOCC5)c([N+](=O)[O-])c4)c(Oc4cnc5[nH]ccc5c4)c3)CC2)=C(c2ccc(Cl)cc2)C1 + Cc1nc(NC(=O)N2CCCC2C(N)=O)sc1-c1ccnc(C(C)(C)C(F)(F)F)c1 , I found its IC50 recorded as 6.72

Looking up CC1(C)CCC(CN2CCN(c3ccc(C(=O)NS(=O)(=O)c4ccc(NCC5CCOCC5)c([N+](=O)[O-])c4)c(Oc4cnc5[nH]ccc5c4)c3)CC2)=C(c2ccc(Cl)cc2)C1 + CC(Nc1ccc2c(c1)OCCn1cc(N3C(=O)OCC3C(F)F)nc1-2)C(N)=O , I found its IC50 recorded as 4.7

Looking up CCCS(=O)(=O)Nc1ccc(F)c(C(=O)c2c[nH]c3ncc(-c4ccc(Cl)cc4)cc23)c1F + CC(Nc1ccc2c(c1)OCCn1cc(N3C(=O)OCC3C(F)F)nc1-2)C(N)=O , I found its IC50 recorded as 4.81

----------
Tested on: 958667-338-R-J2-PDC tumor spheroids viability
testProtocol: Anticancer human tumor 958667-338-R-J2-PDC cell line growth inhibition [PI3K];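 further: spheroids exposed to compounds for seven days before readout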
assayContext: second compound 0.1 µM; first compound 3.16 µM; stronger effect = lower value; spheroids with HUVEC and MSC
The reader will find reported viability, T/C values listed item by item below.
The reply should contain only the number, in %.

In the examples that follow, each entry is paired with its recorded viability, T/C.
molecule	viability, T/C [%]
CC1(C)CCC(CN2CCN(c3ccc(C(=O)NS(=O)(=O)c4ccc(NCC5CCOCC5)c([N+](=O)[O-])c4)c(Oc4cnc5[nH]ccc5c4)c3)CC2)=C(c2ccc(Cl)cc2)C1 + Cc1nc(NC(=O)N2CCCC2C(N)=O)sc1-c1ccnc(C(C)(C)C(F)(F)F)c1	107
CC(Cn1ccc(-c2ccc(C#N)c(Cl)c2)n1)NC(=O)c1cc(C(C)O)[nH]n1 (stereo not drawn) + CC(Nc1ncnc2nc[nH]c12)c1cc2cccc(Cl)c2c(=O)n1-c1ccccc1	99.4
Cn1ncc(Cl)c1-c1cc(C(=O)NC(CN)Cc2cccc(F)c2)sc1Cl (stereo not drawn) + Cc1nc(NC(=O)N2CCCC2C(N)=O)sc1-c1ccnc(C(C)(C)C(F)(F)F)c1	41.3
Cn1ncc(Cl)c1-c1cc(C(=O)NC(CN)Cc2cccc(F)c2)sc1Cl (stereo not drawn) + COc1c(OCCCN2CCOCC2)ccc2c3n(c(=NC(=O)c4cnc(N)nc4)nc12)CCN3	27.9
Cn1ncc(Cl)c1-c1cc(C(=O)NC(CN)Cc2cccc(F)c2)sc1Cl (stereo not drawn) + CC(Nc1ccc2c(c1)OCCn1cc(N3C(=O)OCC3C(F)F)nc1-2)C(N)=O	38.4

Looking up CCCS(=O)(=O)Nc1ccc(F)c(C(=O)c2c[nH]c3ncc(-c4ccc(Cl)cc4)cc23)c1F + COc1c(OCCCN2CCOCC2)ccc2c3n(c(=NC(=O)c4cnc(N)nc4)nc12)CCN3 , I found its viability, T/C recorded as 63.2

Looking up CC1(C)CCC(CN2CCN(c3ccc(C(=O)NS(=O)(=O)c4ccc(NCC5CCOCC5)c([N+](=O)[O-])c4)c(Oc4cnc5[nH]ccc5c4)c3)CC2)=C(c2ccc(Cl)cc2)C1 + COc1c(OCCCN2CCOCC2)ccc2c3n(c(=NC(=O)c4cnc(N)nc4)nc12)CCN3 , I found its viability, T/C recorded as 69.6

Looking up CC(C)NCC(C(=O)N1CCN(c2ncnc3c2C(C)CC3O)CC1)c1ccc(Cl)cc1 (stereo not drawn) + Cc1nc(NC(=O)N2CCCC2C(N)=O)sc1-c1ccnc(C(C)(C)C(F)(F)F)c1 , I found its viability, T/C recorded as 102

Looking up CC(C)NCC(C(=O)N1CCN(c2ncnc3c2C(C)CC3O)CC1)c1ccc(Cl)cc1 (stereo not drawn) + CC(Nc1ncnc2nc[nH]c12)c1cc2cccc(Cl)c2c(=O)n1-c1ccccc1 , I found its viability, T/C recorded as 92.4

Looking up CC(C)NCC(C(=O)N1CCN(c2ncnc3c2C(C)CC3O)CC1)c1ccc(Cl)cc1 (stereo not drawn) + COc1c(OCCCN2CCOCC2)ccc2c3n(c(=NC(=O)c4cnc(N)nc4)nc12)CCN3 , I found its viability, T/C recorded as 51.1

Looking up CC(Cn1ccc(-c2ccc(C#N)c(Cl)c2)n1)NC(=O)c1cc(C(C)O)[nH]n1 (stereo not drawn) + CC(Nc1ccc2c(c1)OCCn1cc(N3C(=O)OCC3C(F)F)nc1-2)C(N)=O , I found its viability, T/C recorded as 91.1

Looking up CC1(C)CCC(Nc2ncc(C(F)(F)F)c(-c3c[nH]c4c(P(C)(C)=O)c(C#N)ccc34)n2)CN1 (stereo not drawn) + COc1c(OCCCN2CCOCC2)ccc2c3n(c(=NC(=O)c4cnc(N)nc4)nc12)CCN3 , I found its viability, T/C recorded as 44.8

Looking up Cn1nccc1Nc1nccc(-c2ccn(C(CO)c3ccc(Cl)c(F)c3)c(=O)c2)n1 (stereo not drawn) + CC(Nc1ccc2c(c1)OCCn1cc(N3C(=O)OCC3C(F)F)nc1-2)C(N)=O , I found its viability, T/C recorded as 87.4

Looking up Cn1nccc1Nc1nccc(-c2ccn(C(CO)c3ccc(Cl)c(F)c3)c(=O)c2)n1 (stereo not drawn) + Cc1nc(NC(=O)N2CCCC2C(N)=O)sc1-c1ccnc(C(C)(C)C(F)(F)F)c1 , I found its viability, T/C recorded as 75

Looking up CCCS(=O)(=O)Nc1ccc(F)c(C(=O)c2c[nH]c3ncc(-c4ccc(Cl)cc4)cc23)c1F + CC(Nc1ncnc2nc[nH]c12)c1cc2cccc(Cl)c2c(=O)n1-c1ccccc1 , I found its viability, T/C recorded as 133

Looking up CC(Cn1ccc(-c2ccc(C#N)c(Cl)c2)n1)NC(=O)c1cc(C(C)O)[nH]n1 (stereo not drawn) + Cc1nc(NC(=O)N2CCCC2C(N)=O)sc1-c1ccnc(C(C)(C)C(F)(F)F)c1 , I found its viability, T/C recorded as 91.9

Looking up Cn1ncc(Cl)c1-c1cc(C(=O)NC(CN)Cc2cccc(F)c2)sc1Cl (stereo not drawn) + CC(Nc1ncnc2nc[nH]c12)c1cc2cccc(Cl)c2c(=O)n1-c1ccccc1 , I found its viability, T/C recorded as 59

Looking up C[C@@H](NC(=O)c1ncnc(N)c1Cl)c1ncc(C(=O)Nc2cc(C(F)(F)F)c(Cl)cn2)s1 + CC(Nc1ncnc2nc[nH]c12)c1cc2cccc(Cl)c2c(=O)n1-c1ccccc1 , I found its viability, T/C recorded as 97.6
